# experimental.system: FGFR1 (Homo sapiens, UniProt P11362)
# Construct: purchased DiscoveRx Corporation
# Sequence (P11362 22-822): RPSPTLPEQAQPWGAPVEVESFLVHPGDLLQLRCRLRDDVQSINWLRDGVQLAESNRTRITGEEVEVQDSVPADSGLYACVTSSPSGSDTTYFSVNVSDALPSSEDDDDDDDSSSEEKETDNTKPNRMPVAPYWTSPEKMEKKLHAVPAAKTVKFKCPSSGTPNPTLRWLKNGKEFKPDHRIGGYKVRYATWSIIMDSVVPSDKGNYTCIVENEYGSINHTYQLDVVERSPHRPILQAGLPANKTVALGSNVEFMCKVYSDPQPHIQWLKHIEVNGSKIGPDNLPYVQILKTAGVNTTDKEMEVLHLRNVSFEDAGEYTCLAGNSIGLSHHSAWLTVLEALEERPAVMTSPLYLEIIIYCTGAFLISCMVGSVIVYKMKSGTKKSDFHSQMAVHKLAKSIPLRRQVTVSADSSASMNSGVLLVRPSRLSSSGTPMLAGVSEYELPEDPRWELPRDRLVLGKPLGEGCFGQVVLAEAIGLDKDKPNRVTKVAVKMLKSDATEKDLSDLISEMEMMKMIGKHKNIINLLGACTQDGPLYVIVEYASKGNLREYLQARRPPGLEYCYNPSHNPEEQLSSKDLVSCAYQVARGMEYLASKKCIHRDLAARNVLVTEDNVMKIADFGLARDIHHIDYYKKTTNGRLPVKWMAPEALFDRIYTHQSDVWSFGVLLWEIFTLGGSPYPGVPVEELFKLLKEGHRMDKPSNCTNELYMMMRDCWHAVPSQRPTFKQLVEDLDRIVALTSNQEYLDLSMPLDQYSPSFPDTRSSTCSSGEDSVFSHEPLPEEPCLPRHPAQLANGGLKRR
# protocol.details: Enzyme binding assay (KINOMEscan) FGFR1
# test.context: FGFR1_pKd, pKd = -log Kd (M)
measurement.label: Kd

compound	result
COc1cc(OC)c(F)c(N(CCO)c2ccc3ncn(-c4ccncc4)c(=O)c3c2)c1	1e-07 M
COc1cc(OC)c(F)c(N(CCO)c2ccc3ncn(C4CCOCC4)c(=O)c3c2)c1	3.98e-07 M
COc1cc(OC)c(F)c(N(Cc2ncc[nH]2)c2ccc3ncn(C4CCNCC4)c(=O)c3c2)c1F	1.58e-08 M
COc1cc(OC)cc(N(CCO)c2ccc3ncn(C4CCOCC4)c(=O)c3c2)c1	6.31e-07 M
COc1cc(OC)c(F)c(N(CCNC(C)C)c2ccc3ncn(-c4cnn(C)c4)c(=O)c3c2)c1F	1.58e-09 M
COc1cc(OC)c(F)c(N(CCO)c2ccc3ncn(C4CCNCC4)c(=O)c3c2)c1	1.26e-06 M
COc1cc(OC)c(F)c(N(CCO)c2ccc3ncn(-c4cccnc4)c(=O)c3c2)c1F	1.58e-08 M
COc1cc(OC)cc(N(CCCNC(C)C)c2ccc3ncn(C4CCOCC4)c(=O)c3c2)c1 [Compound 73′]	1.26e-07 M

Source: patent US9493426B2
